# Test system: MDA-MB-231 breast
# TEST PROTOCOL: NCI-60 one-dose screen, 48 h (100 = growth as untreated, 0 = no growth, -100 = all killed)
# RUN CONDITIONS: 10 µM unless noted
This is part of a sample that, as a whole, favours compounds with a hit. Of some 83,000 tested, about 20% had one in any assay.
READOUT: growth (%)
Give bare numbers, in %.

In the examples that follow, each entry is paired with its recorded growth.
CC1=CC=C(NC(=O)/C=C/c2ccccc2)CC1Nc1nccc(-c2cccnc2)n1 (stereo not drawn); 51.5
N=C(N)c1ccc(-c2ccc(-c3ccc(Cl)c(Cl)c3)s2)cc1; -20.2
NC1=CC(=O)c2cccnc2C1=O; -13.5
CCCCCCCCn1ccc2cc(NC(=O)CN3CCN(c4nc(C)cc(N5CCCCC5)n4)CC3)ccc21; 85.7
Cc1ccc(NC(=O)c2sc3nc(C)c(C(=O)c4ccccc4)cc3c2N)cc1; 92

Answer for every listed entry: what is its growth? The entries follow.
1. CCNC(=S)n1nc(SC)c(C(=O)OCC)c1N
2. C=C(C)[C@@H]1CC[C@]2(C(=O)O)CC[C@]3(C)[C@H](CC[C@@H]4[C@@]5(C)CCC(N)C(C)(C)[C@@H]5CC[C@]43C)[C@@H]12 (stereo partly drawn)
3. COc1ccc(CCNC(=O)COc2cc3c(Nc4ccc(F)c(Cl)c4)ncnc3cc2OC)cc1OC
4. C/C=C(\C)C(=O)N[C@H]1CC[C@]2(C)C3CC[C@@]4(C)C(CC[C@@H]4C(C)N(C)C)C3CCC2[C@H]1OC(C)=O (stereo partly drawn)
5. S=c1nc(CS)[nH]c2ccccc12
6. Cc1[nH]c(C(=O)Nc2nc3ccc(NC(=O)CCN)cc3s2)c(Cl)c1Cl
7. C=C1CC[C@@H]2[C@](C)(COC(C)=O)[C@H](OC(C)=O)CC[C@@]2(C)[C@@H]1CC(Nc1ccc(S(=O)(=O)Nc2nccs2)cc1)C1=CCOC1=O (stereo partly drawn)

[92.5, 18.3, 94.4, -32.3, 82.8, 51, 5.69]

---

# Test system: NCI-H522 lung
# TEST PROTOCOL: NCI-60 one-dose screen, 48 h
# RUN CONDITIONS: 10 µM unless noted
# Procedure: Growth inhibition of the NCI-H522 human Non-Small Cell Lung tumor cell line is measured as a screen for anti-cancer activity. Cells are grown in 96 well plates and exposed to the test compound for 48 hours. Compounds are tested at a single concentration, which is 10^-5 M for most compounds. The reported endpoint is percent growth (GI% or GIPRCNT), where numbers from 0 - 100% represent growth inhibition, and numbers from -100% - 0 represent cell death. […]
The panel holds about 83,000 compounds, 20% with a hit somewhere; the sample as a whole holds those more often. Activity calls are given as the source filed them. The calls were made as follows: active = growth percent below 10; inactive = the rest.
Please state which outcome applies, choosing from 1 (active), -1 (inactive)

Solved cases (3 shown):
CCCCSc1ccc2nc(-c3ccc(OCCCN=C(N)N)cc3)cn2c1; -1
C#CCn1cnc2cnc(Nc3cccc(NC(=O)CCl)c3)nc21; 1
COc1cc(-c2nc(SCCC(C)C)nc(Nc3ccc(F)cc3)c2C#N)cc(OC)c1OC; -1

Which outcome was entered for the molecule `COC(=O)c1nc(-c2ccc(C)cc2)oc1S(=O)(=O)c1ccc(Cl)cc1` in this test?
-1
